Hello, the source for this data is ChEMBL document CHEMBL4689842, in case you need it.

system: HEK-293T; test: Multiplex assay against HEK293T; assay type: toxicity, cell-based; details: human, 12 h, 10 µM, compound concentration 10 uM, replicate 1
MEASUREMENT TYPE: Total Cell Count
Write the number on its own, no unit after it.

# annotated cases, reported Total Cell Count shown
[[record]]
compound = "Cc1nc(Cc2cccc(C(F)(F)F)c2)sc1-c1ccc(C(N)=O)nc1 [TP-024n]"
measured_on = "HEK-293T"
test_result = 316

[[record]]
compound = "CN(C)C/C=C/C(=O)Nc1cc2c(Nc3ccc(F)c(Cl)c3)ncnc2cc1O[C@H]1CCOC1.O=C(O)/C=C\\C(=O)O.O=C(O)/C=C\\C(=O)O [AFATINIB DIMALEATE]"
measured_on = "HEK-293T"
test_result = 647

[[record]]
compound = "Cc1cc2c(cc1N1C(=O)c3cccc4c(CCCO)ccc(c34)C1=O)n(C)c(=O)n2C"
measured_on = "HEK-293T"
test_result = 302

[[record]]
compound = "CCc1cc2c(cc1CC)CC(NC[C@H](O)c1ccc(O)c3[nH]c(=O)ccc13)C2"
measured_on = "HEK-293T"
test_result = 204

[[record]]
compound = "CC(C)(C)c1cnc(CSc2cnc(NC(=O)C3CCNCC3)s2)o1"
measured_on = "HEK-293T"
test_result = 549


input: Any idea what Total Cell Count was measured for "COc1cc2c(Nc3ccc(NC(=O)c4ccccc4)cc3)ncnc2cc1OCCCN1CCOCC1" ?
output: 626

input: Any idea what Total Cell Count was measured for "CN(C)CCOc1ccc(-c2nc(-c3ccncc3)c(-c3ccc4c(c3)CC/C4=N\O)[nH]2)cc1" ?
output: 676

input: Any idea what Total Cell Count was measured for "CC(C)N1CCC(C)(C)c2cc(C#Cc3ccc(C(=O)O)cc3)ccc21" ?
output: 563

input: Any idea what Total Cell Count was measured for "CCOc1cc2ncc(C#N)c(Nc3ccc(OCc4cccc(F)c4)c(Cl)c3)c2cc1NC(=O)/C=C/CN(C)C" ?
output: 591

input: Any idea what Total Cell Count was measured for "Cc1cn(-c2cc(NC(=O)c3ccc4c(c3)CN(c3cncnc3)C[C@@H]4C)cc(C(F)(F)F)c2)cn1" ?
output: 653

input: Any idea what Total Cell Count was measured for "CCCn1c(=O)c2[nH]c(C34CC5CC(CC3C5)C4)nc2n(CCC)c1=O" ?
output: 256

----------
test system: HEK-293T; experiment: Multiplex assay against HEK293T; format: toxicity, cell-based; conditions: human, 12 h, 10 µM, compound concentration 10 uM, replicate 2;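 on Population Tubulin-Different-Phenotype (%): share of the cells with healthy nuclei that show this phenotype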
Threshold 90%. Population Tubulin-Different-Phenotype (%) below it: Y. Population Tubulin-Different-Phenotype (%) at it or above: N.

Illustrative cases are given below, each with its answer.
[[record]]
molecule = "CCC(=O)O[C@]1(C(=O)SCF)[C@H](C)C[C@H]2[C@@H]3C[C@H](F)C4=CC(=O)C=C[C@]4(C)[C@@]3(F)[C@@H](O)C[C@@]21C [FLUTICASONE PROPIONATE]"
label = "Y"

[[record]]
molecule = "CCOc1cc(N2CCC(O)CC2)ccc1Nc1ncc2c(n1)N(C1CCCC1)CCC(=O)N2C"
label = "Y"

[[record]]
molecule = "COc1cc2c(Nc3ccc(NC(=O)c4ccccc4)cc3)ncnc2cc1OCCCN1CCOCC1"
label = "Y"

[[record]]
molecule = "Cc1cc2c(cc1N1C(=O)c3cccc4c(CCCO)ccc(c34)C1=O)n(C)c(=O)n2C"
label = "N"

[[record]]
molecule = "CC(=O)c1cc(-c2cc(C(=O)NC3CC3)ccc2C)c2ncccn12"
label = "Y"

[[record]]
molecule = "Cc1nc(Cc2cccc(C(F)(F)F)c2)sc1-c1ccc(C(N)=O)nc1 [TP-024n]"
label = "Y"


input: Confirm or reject: Population Tubulin-Different-Phenotype (%) of CNC(=O)c1cc(Oc2ccc(NC(=O)Nc3cc(C(C)(C)C)nn3-c3ccc4ncccc4c3)c(F)c2)ccn1 [REBASTINIB] lies strictly below 90%
output: N

input: Confirm or reject: Population Tubulin-Different-Phenotype (%) of CN(C)C/C=C/C(=O)Nc1cc2c(Nc3ccc(F)c(Cl)c3)ncnc2cc1O[C@H]1CCOC1.O=C(O)/C=C\C(=O)O.O=C(O)/C=C\C(=O)O [AFATINIB DIMALEATE] lies strictly below 90%
output: N

input: Confirm or reject: Population Tubulin-Different-Phenotype (%) of "COc1cc2c(NC3CCN(C(C)C)CC3)nc(N3CCC(F)(F)CC3)nc2cc1OCCCN1CCCC1" lies strictly below 90%
output: N

input: Confirm or reject: Population Tubulin-Different-Phenotype (%) of CCCn1c(=O)c2[nH]c(C34CC5CC(CC3C5)C4)nc2n(CCC)c1=O [ROLOFYLLINE] lies strictly below 90%
output: Y
